system: NCI-H322M lung; experiment: NCI-60 one-dose screen, 48 h (100 = growth as untreated, 0 = no growth, -100 = all killed); settings: 10 µM unless noted
Compounds without any hit were thinned out: in the full panel of roughly 83,000, 20% have a hit.

>  <COMPOUND STRING>
Cc1ccc(Nc2ncnc3c2c(C)nn3-c2ccc([N+](=O)[O-])cc2)cc1

>  <growth [%]>
88.5

$$$$
>  <COMPOUND STRING>
C=C(C)[C@@H]1CC[C@]2(C(=O)NCCCN(CCC#N)CCC#N)CC[C@]3(C)[C@H](CC[C@@H]4[C@@]5(C)CCC(=O)C(C)(C)[C@@H]5CC[C@]43C)[C@@H]12

>  <growth [%]>
103

$$$$
>  <COMPOUND STRING>
CN1CCN(Cc2ccc(NC(=O)c3cncc(C#Cc4cnc5ccc(NC6CCOCC6)nn45)c3)cc2C(F)(F)F)CC1

>  <growth [%]>
-20

$$$$
>  <COMPOUND STRING>
C/C=C/C=C1\C[C@H]2CO[C@H](O2)C1=O

>  <growth [%]>
93.7

$$$$

These data points were gathered from PubChem BioAssay (NCI).
